Below, each entry is listed with its recorded activity change, negative = cytotoxicity.
# Test system: CASKI
# experimentalDetails: Primary qHTS to identify gynecologic anti-cancer compounds using libraries of approved drugs and bioactive compounds (AID 1345084); further: on the % scale 0 is the no-effect control and ±100 the full control effect; nearly all actives have a fitted effect of over 55% in size
# setupConditions: Gynecologic cancer cell panel viability, ATPlite luminescence, 48 h; series mostly up to 57.5 µM
Records with an inconclusive call do not appear. Active and inactive are the calls of the source. The call rests on the fitted dose curve; in most records, active means well fitted cell-killing curve with a large enough effect; inconclusive means small, poorly fitted or top-dose-only effect, or effect the other way; inactive means flat fitted curve, though single readings scatter.

{"columns": ["compound", "activity change, negative = cytotoxicity"],
 "data": [
  ["C[C@@H]1O[C@@H](O[C@H]2[C@H](O)[C@@H](O)[C@H](OC[C@H]3O[C@@H](OC(=O)[C@]45CCC(C)(C)C[C@H]4C4=CCC6[C@@]7(C)CC[C@H](O[C@@H]8OC[C@H](O)[C@H](O[C@@H]9O[C@H](CO)[C@@H](O)[C@H](O)[C@H]9O)[C@H]8O)[C@@](C)(CO)C7CC[C@@]6(C)[C@]4(C)CC5)[C@H](O)[C@@H](O)[C@@H]3O)O[C@@H]2CO)[C@H](O)[C@H](O)[C@H]1O (stereo partly drawn)", "-0.125% [at 6.55 µM] (inactive)"],
  ["C[C@@H]1O[C@@H](O[C@H]2[C@H](OC(=O)[C@]34CCC(C)(C)C[C@H]3C3=CCC5[C@@]6(C)CC[C@H](O[C@@H]7O[C@H](C(=O)O)[C@@H](O)[C@H](O)[C@H]7O[C@@H]7O[C@H](CO)[C@H](O)[C@H](O)[C@H]7O)[C@@](C)(C=O)C6CC[C@@]5(C)[C@]3(C)C[C@H]4O)O[C@H](C)[C@H](O[C@@H]3O[C@H](C)[C@H](O)[C@H](O)[C@H]3O)[C@@H]2O)[C@H](O)[C@H](O)[C@H]1O[C@@H]1OC[C@@H](O)[C@H](O[C@@H]2O[C@H](CO)[C@@H](O)[C@H](O)[C@H]2O)[C@H]1O (stereo partly drawn)", "4.26% [at 6.55 µM] (inactive)"]
]}

Here is another compound to look at.
// query Kindly indicate its recorded activity change, negative = cytotoxicity. Item: COC1CC(O[C@H]2CC[C@@]3(C)C(CCC4C3[C@H](OC(C)=O)[C@@H](OC(=O)/C=C/c3ccccc3)[C@]3(C)C(C(C)=O)CC[C@]43O)C2)OC(C)C1OC1CC(OC)C(OC2CC(OC)C(OC3OC(C)C(OC4OC(CO)C(O)C(O)C4O)C(OC)C3O)C(C)O2)C(C)O1 (stereo partly drawn)
// result 1.19% [at 6.55 µM] (inactive)
